target: hClpP (Homo sapiens, UniProt Q16740); experiment: activating ClpP hydrolysis of FITC-casein (fluorescence kinetic detection); details: hClpP 1 μM, FITC-Casein 4 μM, 37° C.
Sequence (Q16740 57-277): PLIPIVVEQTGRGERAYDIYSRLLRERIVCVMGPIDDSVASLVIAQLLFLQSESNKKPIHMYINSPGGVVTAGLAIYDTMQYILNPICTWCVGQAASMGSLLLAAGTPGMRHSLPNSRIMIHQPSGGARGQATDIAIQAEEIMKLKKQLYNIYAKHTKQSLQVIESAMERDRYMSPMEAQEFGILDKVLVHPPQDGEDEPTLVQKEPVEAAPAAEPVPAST
pEC50: −log10 of the molar value.
metric_name: pEC50

>>> print(df.to_string())
                    structure_smiles_string  result
0  O=c1c2c(c3cccnc3n1Cc1ccc(F)cc1)CCN(Cc1ccccc1)C2  > 6.00

// query I am curious: what pEC50 value has been reported for `CCc1ccc(Cn2c(=O)c3c(c4cccnc42)CCN(Cc2cccc(F)c2)C3)cc1` ?
// result > 6.00

// query State the recorded pEC50 for this entry: `O=c1c2c(n3ccnc3n1Cc1ccc(C(F)(F)F)cc1)CCN(Cc1ccccc1)C2`
// result > 6.00
